- Tested on: C. neoformans (H99 serotype A)
- Procedure Text: microbe, parasite or virus in culture
- Assay type: cell-based, Cryptococcus neoformans var. grubii
- Recorded Conditions: RPMI-1640 pH 7.0, 10^4 cells/mL, 37°C, 48 h, shaking 200 rpm; at least three experiments; read-out: Minimum inhibitory concentration, C. neoformans (H99 serotype A)
Ends that are not written are not given here.
Value Type: MIC

1) FIGMIPGLIGGLISAIK-NH2 [ToAP3] :: 100 µM
2) FLGMIPGLIGGLISAFK-NH2 [NDBP-4.23] :: 25 µM
3) ILSAIWSGIKSLF-NH2 [NDBP-5.7] :: 25 µM
4) FIGMIPGLIGGLISAFK-NH2 [ToAP1] :: 25 µM
5) GILGKIWEGVKSLI [NDBP-5.8] :: 100 µM

---

Listed below: MIC values for each entry.
- System: C. glabrata (ATCC 90030)
- Procedure Text: microbe, parasite or virus in culture
- Assay type: cell-based, Candida glabrata
- Recorded Conditions: RPMI-1640 pH 7.0, 2 × 10^3 cells/mL, 37°C, 24 h; peptides 400 to 0.78 μM; at least three experiments; read-out: Minimum inhibitory concentration, C. glabrata (ATCC 90030)
Ends that are not written are not given here.
Value Type: MIC

1) GILGKIWEGVKSLI [NDBP-5.8] :: >400 µM
2) FLGMIPGLIGGLISAFK-NH2 [NDBP-4.23] :: >400 µM
3) ILSAIWSGIKSLF-NH2 [NDBP-5.7] :: >400 µM
4) FIGMIPGLIGGLISAFK-NH2 [ToAP1] :: >400 µM
5) FIGMIPGLIGGLISAIK-NH2 [ToAP3] :: >400 µM

---

Listed below: MIC values for each entry.
- System: C. albicans (SC5314)
- Procedure Text: microbe, parasite or virus in culture
- Type: cell-based, Candida albicans
- Recorded Conditions: RPMI-1640 pH 7.0, 2 × 10^3 cells/mL, 37°C, 24 h; complete inhibition of visible growth; at least three experiments; read-out: Minimum inhibitory concentration, C. albicans (SC5314)
Ends that are not written are not given here.
Value Type: MIC

1. ILSAIWSGIKSLF-NH2 [NDBP-5.7] :: 25 µM
2. FLGMIPGLIGGLISAFK-NH2 [NDBP-4.23] :: 50 µM
3. FIGMIPGLIGGLISAIK-NH2 [ToAP3] :: 25 µM
4. FIGMIPGLIGGLISAFK-NH2 [ToAP1] :: 50 µM
5. GILGKIWEGVKSLI [NDBP-5.8] :: 100 µM
